# target-of-assay: furin, P09958;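 further: purified furin at 1:10 enzyme:substrate in 50 mM HEPES pH 7.5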
# Sequence (P09958 whole entry): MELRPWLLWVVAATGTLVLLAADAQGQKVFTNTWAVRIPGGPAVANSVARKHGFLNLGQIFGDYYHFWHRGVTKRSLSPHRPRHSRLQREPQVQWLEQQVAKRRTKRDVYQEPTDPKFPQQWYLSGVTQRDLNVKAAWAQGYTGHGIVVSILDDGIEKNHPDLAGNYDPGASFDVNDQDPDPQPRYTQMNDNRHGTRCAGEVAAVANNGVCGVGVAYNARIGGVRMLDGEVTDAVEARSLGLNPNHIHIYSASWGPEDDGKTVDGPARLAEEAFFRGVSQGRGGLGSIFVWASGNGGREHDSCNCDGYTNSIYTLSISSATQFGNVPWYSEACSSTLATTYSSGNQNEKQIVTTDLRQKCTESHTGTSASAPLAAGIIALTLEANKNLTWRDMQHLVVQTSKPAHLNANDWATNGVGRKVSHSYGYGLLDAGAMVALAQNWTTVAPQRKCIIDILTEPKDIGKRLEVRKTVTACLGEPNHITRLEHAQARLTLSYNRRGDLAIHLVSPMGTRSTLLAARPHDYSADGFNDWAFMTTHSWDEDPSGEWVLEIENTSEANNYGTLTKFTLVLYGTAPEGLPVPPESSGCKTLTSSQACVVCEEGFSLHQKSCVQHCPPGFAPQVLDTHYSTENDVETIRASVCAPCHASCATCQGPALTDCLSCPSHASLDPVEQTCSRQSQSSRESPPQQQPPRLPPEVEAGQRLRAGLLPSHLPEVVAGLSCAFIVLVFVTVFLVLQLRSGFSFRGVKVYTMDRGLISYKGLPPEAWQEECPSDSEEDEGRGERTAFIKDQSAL
# protocol-details: furin cleavage Z-score vs untreated control; higher = more cleavage, active = 3.5 or more, inactive = 1 or less, 8 variable residues between constant flanks
# test-settings: 30 min
This is one part of the list. The hit rate among all sequences tested is not known here.
Label 1 when furin cleavage Z-score is at or above 1; otherwise label 0.

chain-sequence	class-assignment
CACSQHLPYIAGNASASA [HC1016]	0
CAFPMRGRRGAGNASASA [FS-1454]	0
CAFSSRWGRGAGNASASA [FS-1523]	0

Does the sequence CAEFVTSTWVAGNASASA [HC2167] have recorded furin cleavage Z-score that is 1 or more?
1

Does the sequence CAEWEVPCHRAGNASASA [HC2448] have recorded furin cleavage Z-score that is 1 or more?
0

Does the sequence CARGKRELRMAGNASASA [FS-2933] have recorded furin cleavage Z-score that is 1 or more?
1

Does the sequence CAGRTWAQPGAGNASASA [HC197] have recorded furin cleavage Z-score that is 1 or more?
0
